- assay.procedure: Drug level in Sprague-Dawley rat liver at 5 mg/kg, po measured 4 hrs post dose by LC/MS method
- Type: ADME, organism-based
- Parameters: dose 5 mg/kg, route oral
- measurement.setup: read-out: Drug uptake
measured.property: concentration at 4 h

Bench note: what concentration at 4 h did `C=C[C@@H]1C[C@]1(NC(=O)[C@@H]1C[C@@H]2CN1C(=O)[C@H](C1CCCCC1)NC(=O)O[C@@H]1CCC[C@H]1C/C=C/c1cc3c(cc(OCC)nc3cc1OC)O2)C(=O)NS(=O)(=O)C1CC1` show? 37.1 µM

Same question, `C=C[C@@H]1C[C@]1(NC(=O)[C@@H]1C[C@@H]2CN1C(=O)[C@H](C1CCCC1)NC(=O)OCC(C)(C)C[C@@H]1C[C@@H]1c1cc3c(cc(OCC)nc3cc1OC)O2)C(=O)NS(=O)(=O)C1CC1` this time 27 µM

Field entry: `C=C[C@@H]1C[C@]1(NC(=O)[C@@H]1C[C@@H]2CN1C(=O)[C@H](C1CCCCC1)NC(=O)N1CC(C1)OCCC/C=C/c1cc3c(cc(OCC)nc3cc1OC)O2)C(=O)NS(=O)(=O)C1CC1` 4 µM

Repeat for the following compound: `C=C[C@@H]1C[C@]1(NC(=O)[C@@H]1C[C@@H]2CN1C(=O)[C@H](C1CCCCC1)NC(=O)N1CCC[C@@H](C1)OCCCc1cc3c(cc(OCC)nc3cc1OC)O2)C(=O)NS(=O)(=O)C1CC1` 4.4 µM
